system: EKVX; test: NCI tumour cell line growth inhibition, 48 h
Active and inactive are the calls of the source. Rule as the data show it: active = GI50 up to about 1.1 µM and inactive = higher.
Experimental endpoint: GI50

// query Complete the entry with GI50 for "Nc1nc(Cl)cc(NCCCCCNc2cc(Cl)nc(N)n2)n1"
// result 86.5 µM (inactive)

// query Complete the entry with GI50 for CCCC1NC(C#N)(C#N)C(CCC)NC1(C#N)C#N (centres undefined)
// result 42.8 µM (inactive)

// query Complete the entry with GI50 for CC(=O)c1cccc(NC2C(N)C(NC(=O)N(C)C)(C(C)O)C(C)(O)C2(O)COC(=O)c2c(C)cccc2O)c1 (centres undefined)
// result < 0.001 µM (active)

// query Complete the entry with GI50 for COC(=O)[C@]12CCC(C)(C)C[C@H]1C1=CC[C@@H]3[C@@]4(C)CC[C@H](OC5OC(CO)C(O)C(O)C5OC5OC(CO)C(O)C(O)C5O)C(C)(C)[C@@H]4CC[C@@]3(C)[C@]1(C)CC2 (some centres undefined)
// result 11.9 µM (inactive)

// query Complete the entry with GI50 for "COc1cc(/C=C2\C[C@H]3[C@@H]4CC=C5C[C@@H](O)CC[C@]5(C)[C@H]4CC[C@]3(C)C2=O)cc(OC)c1OC"
// result 33.5 µM (inactive)

// query Complete the entry with GI50 for C[C@@H](CC(=O)O)OC1OC(COC(=O)C(C)(C)C)C(OC(=O)C(C)(C)C)C(OC(=O)C(C)(C)C)C1OC(=O)C(C)(C)C (some centres undefined)
// result 93.5 µM (inactive)

// query Complete the entry with GI50 for "O=C1/C(=C/c2cccc3ccccc23)Cc2ccccc21"
// result 26.3 µM (inactive)

// query Complete the entry with GI50 for "COc1cc([C@@H]2c3cc4c(cc3[C@@H](Nc3ccc([N+](=O)[O-])cc3C(=O)c3ccccc3)[C@H]3COC(=O)[C@H]23)OCO4)cc(OC)c1OC"
// result > 100 µM (inactive)

// query Complete the entry with GI50 for "CCOC(=O)Cn1c(=O)ccn(COCCO)c1=O"
// result > 100 µM (inactive)

// query Complete the entry with GI50 for "O=C(O)Cc1cccc2c(=O)c3ccccc3oc12"
// result > 100 µM (inactive)

// query Complete the entry with GI50 for "CCN1CCN(c2nc3ccccc3nc2C(=O)c2ccc(OC)cc2)CC1"
// result 47.1 µM (inactive)

// query Complete the entry with GI50 for "O=C1C(c2c(O)[nH]c3ccc(I)cc23)=Nc2ccccc21"
// result 4.67 µM (inactive)

// query Complete the entry with GI50 for "CSc1ccc(NC(=S)NN(C)C)cc1"
// result > 10 µM (inactive)

// query Complete the entry with GI50 for "COc1c(C)c2c(c3c1c(=O)c1ccccc1n3C)C=CC(C)(C)O2"
// result 47.1 µM (inactive)

// query Complete the entry with GI50 for C=C(COC(C)=O)CC(/C=C(\C)CC/C=C(\C)CO)OC(C)=O (centres undefined)
// result > 100 µM (inactive)

// query Complete the entry with GI50 for Nc1ncnc2c1ncn2C1OC(CO)C(O)C1NS(=O)(=O)c1ccccc1 (centres undefined)
// result > 100 µM (inactive)

// query Complete the entry with GI50 for "Cc1cn(Cc2ccccc2CCl)c(=O)[nH]c1=O"
// result 16.4 µM (inactive)

// query Complete the entry with GI50 for "Nc1ccc(CCN2CCN(CCCc3ccccc3)CC2)cc1"
// result > 100 µM (inactive)

// query Complete the entry with GI50 for C[C@]12CCC3C4=C(CCC3C1CCC2=O)C(=O)[C@H]1O[C@H]1C4=O (some centres undefined)
// result 14.3 µM (inactive)
